The entries below come with measured CTG-3D luminescence at 96 h values attached.
system: HCI-012 (organoid from a breast cancer xenograft); experiment: CTG-3D luminescence at 96 h relative to day-0 seeding control (ratio to day 0); higher = more growth / less cytotoxicity; PDxO 3D drug screen (set 2), 96 h, CTG-3D normalised to day-0 seeding control.; conditions: 0.1 µM; days in culture: 256
// return a plain number; no unit text

Study these solved cases before continuing.
CO[C@H]1C[C@@H]2CC[C@@H](C)[C@@](O)(O2)C(=O)C(=O)N2CCCC[C@H]2C(=O)O[C@H]([C@H](C)C[C@@H]2CC[C@@H](OCCO)[C@H](OC)C2)CC(=O)[C@H](C)/C=C(\C)[C@@H](O)[C@@H](OC)C(=O)[C@H](C)C[C@H](C)/C=C/C=C/C=C/1C	2.19
CC(=O)c1c(C)c2cnc(Nc3ccc(N4CCNCC4)cn3)nc2n(C2CCCC2)c1=O	3.14
CS(=O)(=O)CCNCc1ccc(-c2ccc3ncnc(Nc4ccc(OCc5cccc(F)c5)c(Cl)c4)c3c2)o1	2.69
CC(=O)O[C@@]12CO[C@@H]1C[C@H](O)[C@@]1(C)C(=O)[C@H](O)C3=C(C)[C@@H](OC(=O)[C@H](O)[C@@H](NC(=O)OC(C)(C)C)c4ccccc4)C[C@@](O)([C@@H](OC(=O)c4ccccc4)[C@H]21)C3(C)C	0.695

Proceed to the following item.
Short answer please: CTG-3D luminescence at 96 h, HCI-012, entry `CC(C)n1nc(-c2ccc3oc(N)nc3c2)c2c(N)ncnc21`
1.31
